Recorded IC50 values for a group of molecules are listed next.
# Assay target: UniProtKB P10980
# Sequence (P10980 whole entry): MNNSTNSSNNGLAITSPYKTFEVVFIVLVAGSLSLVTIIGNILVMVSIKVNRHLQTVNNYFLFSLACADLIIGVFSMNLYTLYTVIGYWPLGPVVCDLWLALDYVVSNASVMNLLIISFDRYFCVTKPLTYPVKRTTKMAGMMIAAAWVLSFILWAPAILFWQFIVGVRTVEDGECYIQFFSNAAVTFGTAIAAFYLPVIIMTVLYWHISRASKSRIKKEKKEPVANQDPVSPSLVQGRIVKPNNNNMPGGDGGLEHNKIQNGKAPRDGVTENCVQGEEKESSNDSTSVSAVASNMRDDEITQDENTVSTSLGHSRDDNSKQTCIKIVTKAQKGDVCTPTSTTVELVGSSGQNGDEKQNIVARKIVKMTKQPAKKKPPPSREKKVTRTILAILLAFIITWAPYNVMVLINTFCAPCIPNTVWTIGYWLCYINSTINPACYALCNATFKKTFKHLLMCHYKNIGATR
# Assay procedure: Antagonist activity at rat muscarinic M2 receptor expressed in CHO cells by calcium mobilization assay

# value lookup — system UniProtKB P10980, readout IC50, item CCN1CCN(c2ccc(NC(=O)CC(C)(C)C)cc2Cl)CC1 > 150 µM

Entry CCCC(=O)Nc1ccc(N2CCN(CC)CC2)c(Cl)c1 , system UniProtKB P10980: what IC50 was measured? > 150 µM

What measured IC50 is associated with CCN1CCN(c2ccc(NC(=O)Cc3ccc(F)cc3)cc2Cl)CC1 on UniProtKB P10980? > 150 µM

What measured IC50 is associated with CCN1CCN(c2ccc(NC(=O)CCc3ccccc3)cc2Cl)CC1 on UniProtKB P10980? 52 µM

Form: Entry = CCN1CCN(c2ccc(NC(=O)COc3ccccc3)cc2Cl)CC1 | System = UniProtKB P10980 | IC50 = ____ > 150 µM

IC50 of CCN1CCN(c2ccc(NC(=O)[C@H]3C[C@@H]3c3ccccc3)cc2Cl)CC1 on UniProtKB P10980? 29 µM

State its IC50 on UniProtKB P10980: CCN1CCN(c2ccc(NC(=O)CCC3CCCC3)cc2Cl)CC1 3.5 µM

Hi! What's the reported IC50 for CCCCCC(=O)Nc1ccc(N2CCN(CC)CC2)c(Cl)c1 on UniProtKB P10980? > 150 µM

====

# Assay target: Muscarinic acetylcholine receptor M1 (Rattus norvegicus)
# Sequence (P08482 whole entry): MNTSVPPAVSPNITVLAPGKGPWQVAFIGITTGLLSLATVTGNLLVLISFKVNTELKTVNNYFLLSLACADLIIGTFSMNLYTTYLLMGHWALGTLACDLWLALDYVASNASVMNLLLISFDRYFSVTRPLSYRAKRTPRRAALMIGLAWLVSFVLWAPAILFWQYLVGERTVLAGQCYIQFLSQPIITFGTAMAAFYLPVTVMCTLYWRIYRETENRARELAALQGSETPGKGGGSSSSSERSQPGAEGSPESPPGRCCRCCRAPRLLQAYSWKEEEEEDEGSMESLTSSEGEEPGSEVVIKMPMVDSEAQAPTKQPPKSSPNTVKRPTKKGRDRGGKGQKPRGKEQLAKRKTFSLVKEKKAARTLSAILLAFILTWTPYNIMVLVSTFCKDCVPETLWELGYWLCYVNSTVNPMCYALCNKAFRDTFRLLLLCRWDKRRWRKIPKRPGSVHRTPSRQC
Outcome measure: Ki (nM)
Give just the numeric value; nM need not be written.

Given the molecule CCN1CCN(c2ccc(NC(=O)CCC3CCCC3)cc2Cl)CC1 , what is its reported Ki? 12.7

====

# Assay target: Muscarinic acetylcholine receptor M4 (Rattus norvegicus, UniProt P08485)
# Sequence (P08485 whole entry): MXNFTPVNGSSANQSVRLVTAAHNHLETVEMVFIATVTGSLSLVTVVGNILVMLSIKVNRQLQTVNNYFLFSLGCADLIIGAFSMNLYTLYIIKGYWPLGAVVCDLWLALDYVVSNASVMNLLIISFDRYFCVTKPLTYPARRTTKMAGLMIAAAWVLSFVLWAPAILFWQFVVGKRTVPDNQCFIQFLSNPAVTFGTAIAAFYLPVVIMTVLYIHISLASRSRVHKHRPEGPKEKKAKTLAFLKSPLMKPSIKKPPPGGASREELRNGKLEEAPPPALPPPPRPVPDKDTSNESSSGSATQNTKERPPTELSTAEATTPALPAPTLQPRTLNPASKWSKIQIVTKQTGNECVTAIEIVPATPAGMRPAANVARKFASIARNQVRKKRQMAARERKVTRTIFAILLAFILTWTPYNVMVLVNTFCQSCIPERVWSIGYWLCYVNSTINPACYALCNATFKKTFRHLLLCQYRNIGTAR
# Assay procedure: Antagonist activity at rat muscarinic M4 receptor expressed in CHO cells by calcium mobilization assay
# Format: functional, cell-based
# Lookup of reported IC50 keyed by entry

In the examples that follow, each entry is paired with its recorded IC50.
| Smiles entry | Value measured |
| --- | --- |
| CCN1CCN(c2ccc(NC(=O)COCc3ccccc3)cc2Cl)CC1 | > 150 µM |
| CCCC(=O)Nc1ccc(N2CCN(CC)CC2)c(Cl)c1 | > 150 µM |
| CCN1CCN(c2ccc(NC(=O)COc3ccccc3)cc2Cl)CC1 | > 150 µM |
| CCN1CCN(c2ccc(NC(=O)Cc3ccc(F)cc3)cc2Cl)CC1 | > 150 µM |
| CCN1CCN(c2ccc(NC(=O)CC(C)(C)C)cc2Cl)CC1 | > 150 µM |

Consider the compound CCN1CCN(c2ccc(NC(=O)C3CCCCC3)cc2Cl)CC1 and give its measured IC50. > 150 µM

What IC50 value was documented for this compound, CCN1CCN(c2ccc(NC(=O)CCC3CCCC3)cc2Cl)CC1 ? > 150 µM
